B1: Histone H1t, residues 44 to 112; numbered along this chain, P22492 (parent)
chain: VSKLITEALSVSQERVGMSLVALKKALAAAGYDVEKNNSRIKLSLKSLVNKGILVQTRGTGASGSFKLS

# Variants of: B1
# Test Summary: abundance fitness (aPCA) (normalised: wild type 0, dead -1); higher = more abundant; growth selection in yeast, the domain comes from the species named
# Experimental Parameters: Homo sapiens
Readout Type: abundance fitness
Write the value as a bare number.

query: Find the recorded abundance fitness belonging to A62R and report it.
result: -0.072

query: # get_value(readout='abundance fitness', item= R58A )
result: 0.078

query: For the variant L68G , what abundance fitness is on record?
result: -0.049

query: Using the record for A28L , report its abundance fitness.
result: -0.087

query: I am curious: what abundance fitness value has been reported for T57Y ?
result: -0.133

query: Consider the variant G59H and give its measured abundance fitness.
result: -0.13

query: Fill blank: measured abundance fitness of the variant G52T is ____.
result: -0.15

query: Entry L48W : reported abundance fitness = ?
result: -0.402

query: Record request: abundance fitness value, item R58M
result: -0.077

query: Value lookup for abundance fitness; key = G61S
result: -0.07

query: What value of measured abundance fitness is listed for A28C ?
result: -0.175

query: Form field: reported abundance fitness of K67T
result: -0.193

query: # abundance fitness lookup, item N37I
result: 0.148

// provenance: the Human Domainome abundance scans (Beltran et al. 2025)
